Biological target: human DAT (SLC6A3) (Homo sapiens, UniProt Q01959)
Sequence (Q01959 whole entry): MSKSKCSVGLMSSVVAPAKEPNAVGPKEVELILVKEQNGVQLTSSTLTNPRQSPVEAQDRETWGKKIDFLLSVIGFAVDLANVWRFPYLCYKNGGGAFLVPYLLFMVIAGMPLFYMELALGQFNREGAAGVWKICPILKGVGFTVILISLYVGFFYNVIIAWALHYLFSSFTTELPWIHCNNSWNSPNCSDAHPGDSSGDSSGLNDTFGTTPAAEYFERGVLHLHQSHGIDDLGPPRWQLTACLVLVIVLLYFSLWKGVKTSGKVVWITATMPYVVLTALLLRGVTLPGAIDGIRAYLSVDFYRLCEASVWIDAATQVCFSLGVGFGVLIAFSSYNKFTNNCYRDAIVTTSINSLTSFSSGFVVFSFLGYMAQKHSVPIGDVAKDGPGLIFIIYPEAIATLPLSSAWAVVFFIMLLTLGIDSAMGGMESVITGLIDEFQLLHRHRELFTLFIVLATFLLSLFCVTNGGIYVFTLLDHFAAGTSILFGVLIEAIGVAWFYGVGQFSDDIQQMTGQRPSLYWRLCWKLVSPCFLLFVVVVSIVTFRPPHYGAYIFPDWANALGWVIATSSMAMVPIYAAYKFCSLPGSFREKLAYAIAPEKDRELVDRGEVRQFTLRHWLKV
Assay: cell-based
result.type: Ki

>>> meas_value("Cl.Clc1ccc(CCCOCCCN2CCCCC2)cc1 [Pitolisant]")
"4.1 µM"

Would you kindly look at the next entry?
Problem: Name the reported Ki value associated with the compound NC(=O)OC[C@H](N)Cc1ccccc1 [Solriamfetol]
Result: 2.4 µM

---

Experiment: in vivo
Conditions: male, Swiss, mouse, po, 10 mg/kg
AUC(0-t) for assorted compounds
# number only, unit ng·h/mL dropped from output

Problem: Name the reported AUC(0-t) value associated with the compound NC(=O)C[S+]([O-])C(c1ccccc1)c1ccccc1 (centres unmarked)
Result: 2160

Problem: Name the reported AUC(0-t) value associated with the compound NC(=O)OC[C@H](N)Cc1ccccc1
Result: 1150

# credit: paper PMC8381683
